Kd values for the binders below.
- system: T1, RSV F protein (C-terminal truncated F protein secreted from a recombinant baculovirus) (respiratory syncytial virus (RSV), UniProt P03420 26-524)
- T1 construct: also called F antigen; RSV F antigen
- T1 sequence (P03420 26-109, chain 1 of 2): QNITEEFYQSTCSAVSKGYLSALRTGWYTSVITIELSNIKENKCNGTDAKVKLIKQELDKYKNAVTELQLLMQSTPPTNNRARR
- T1 sequence (P03420 137-524, chain 2 of 2): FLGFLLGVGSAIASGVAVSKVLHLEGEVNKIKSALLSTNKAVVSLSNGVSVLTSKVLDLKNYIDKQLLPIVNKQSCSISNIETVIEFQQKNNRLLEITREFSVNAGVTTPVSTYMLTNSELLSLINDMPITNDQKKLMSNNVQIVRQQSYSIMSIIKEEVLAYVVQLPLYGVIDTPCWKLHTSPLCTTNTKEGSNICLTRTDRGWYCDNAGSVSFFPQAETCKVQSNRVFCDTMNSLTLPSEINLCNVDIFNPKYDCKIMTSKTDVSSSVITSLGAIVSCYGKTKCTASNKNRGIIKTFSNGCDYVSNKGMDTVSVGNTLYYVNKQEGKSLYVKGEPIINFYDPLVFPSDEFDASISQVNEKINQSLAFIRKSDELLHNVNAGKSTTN
- method.summary: SPR (BIAcore), from the kinetic constants of Table 4

clone 1 (AFSF) (Fab, V domains shown) VH: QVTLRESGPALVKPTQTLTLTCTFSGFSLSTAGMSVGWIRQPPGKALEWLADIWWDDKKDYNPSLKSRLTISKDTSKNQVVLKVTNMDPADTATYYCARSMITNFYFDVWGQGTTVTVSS VL: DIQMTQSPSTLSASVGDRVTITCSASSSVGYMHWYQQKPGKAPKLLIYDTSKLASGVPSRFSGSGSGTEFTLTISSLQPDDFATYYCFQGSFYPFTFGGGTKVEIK :: ~14.3 pM
clone 22 (AFFF) (Fab, V domains shown, also called 4D2-7) VH: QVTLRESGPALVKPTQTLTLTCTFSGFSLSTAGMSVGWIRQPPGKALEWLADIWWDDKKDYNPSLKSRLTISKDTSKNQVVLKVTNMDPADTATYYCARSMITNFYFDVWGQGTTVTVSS VL: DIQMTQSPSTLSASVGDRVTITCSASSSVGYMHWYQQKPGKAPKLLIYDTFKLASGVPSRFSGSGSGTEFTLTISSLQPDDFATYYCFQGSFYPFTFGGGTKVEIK :: ~2.8 pM
clone 23 (AFFY) (Fab, V domains shown) VH: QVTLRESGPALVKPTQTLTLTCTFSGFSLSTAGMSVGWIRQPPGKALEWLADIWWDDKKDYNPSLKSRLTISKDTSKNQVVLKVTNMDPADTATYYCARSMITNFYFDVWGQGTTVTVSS VL: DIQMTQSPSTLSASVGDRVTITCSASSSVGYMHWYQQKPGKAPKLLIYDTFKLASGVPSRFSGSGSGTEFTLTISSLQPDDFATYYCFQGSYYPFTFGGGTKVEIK :: ~2.5 pM

Which Kd value is on record for clone 3 (PFFF) (Fab, V domains shown, also called 3 (n = 3)) VH: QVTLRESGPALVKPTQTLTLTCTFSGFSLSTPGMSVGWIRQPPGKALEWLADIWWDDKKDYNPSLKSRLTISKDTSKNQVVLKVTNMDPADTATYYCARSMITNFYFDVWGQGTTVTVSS VL: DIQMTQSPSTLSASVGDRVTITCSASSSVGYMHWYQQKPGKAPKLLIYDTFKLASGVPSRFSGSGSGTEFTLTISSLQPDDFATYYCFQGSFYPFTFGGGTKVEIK ?
~12.3 pM
